target: CCKB (Mus musculus, UniProt P56481); construct: The cortex was dissected, weighed and homogenised in 40 ml ice-cold buffer; from tissue; host or cells: cerebral cortex membranes of male CD1 mice (Charles River); test: radioligand binding assay at the CCKB (CCK8 [sic]) receptor in mouse cortical membranes; conditions: [125I]-CCK8S 200 pM, 150 min at 21±3° C., read-out: CCKB pKi (converted)
Sequence (P56481 whole entry): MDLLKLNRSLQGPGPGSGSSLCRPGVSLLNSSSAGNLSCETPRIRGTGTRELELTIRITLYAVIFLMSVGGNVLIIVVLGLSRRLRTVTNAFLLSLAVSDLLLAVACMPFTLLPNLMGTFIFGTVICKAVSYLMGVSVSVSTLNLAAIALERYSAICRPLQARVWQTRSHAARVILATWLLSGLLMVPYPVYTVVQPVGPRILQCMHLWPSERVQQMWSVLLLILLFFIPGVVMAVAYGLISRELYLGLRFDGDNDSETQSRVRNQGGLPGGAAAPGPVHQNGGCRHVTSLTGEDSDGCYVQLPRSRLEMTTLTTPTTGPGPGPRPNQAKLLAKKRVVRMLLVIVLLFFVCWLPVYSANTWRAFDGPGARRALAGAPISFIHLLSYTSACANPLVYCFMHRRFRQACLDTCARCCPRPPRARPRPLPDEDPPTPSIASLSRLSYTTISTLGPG
Exercise: state measured Ki for each of the molecules provided.
One number for each entry, in µM.

List the reported Ki of each molecule below.
1. O=C(O)c1cc(NC(=O)[C@H](Cc2ccccc2)NC(=O)c2ccc([N+](=O)[O-])cc2C(=O)NCC23CC4CC(CC(C4)C2)C3)cc(C(=O)O)c1 [Example 14]
2. O=C(O)c1cc(NC(=O)[C@H](Cc2ccccc2)NC(=O)c2ncccc2C(=O)NCC23CC4CC(CC(C4)C2)C3)cc(C(=O)O)c1 [Example 10]
3. CN(C)c1ccc(C(=O)N[C@@H](Cc2ccccc2)C(=O)Nc2cc(C(=O)O)cc(C(=O)O)c2)c(C(=O)NCC23CC4CC(CC(C4)C2)C3)c1 [Example 25]
4. O=C(O)c1cc(NC(=O)[C@H](Cc2ccccc2)NC(=O)c2ccccc2C(=O)NCC23CC4CC(CC(C4)C2)C3)cc(C(=O)O)c1 [Example 1]

Return:
[0.501, 0.794, 0.00158, 0.0794]

# map each molecule to its Ki
1. O=C(O)c1cc(NC(=O)[C@H](Cc2ccccc2)NC(=O)c2c[nH]cc2C(=O)NCC23CC4CC(CC(C4)C2)C3)cc(C(=O)O)c1 [Example 13]
2. O=C(O)c1cc(NC(=O)[C@H](Cc2ccccc2)NC(=O)c2cc(O)ccc2C(=O)NCC23CC4CC(CC(C4)C2)C3)cc(C(=O)O)c1 [Example 23]
3. O=C(O)c1cc(NC(=O)[C@H](Cc2ccccc2)NC(=O)c2cccc3c2C(=O)N(CC24CC5CC(CC(C5)C2)C4)C3)cc(C(=O)O)c1 [Example 26]
4. CNc1ccc(C(=O)N[C@@H](Cc2ccccc2)C(=O)Nc2cc(C(=O)O)cc(C(=O)O)c2)c(C(=O)NCC23CC4CC(CC(C4)C2)C3)c1 [Example 24]
5. COc1ccc(C(=O)NCC23CC4CC(CC(C4)C2)C3)c(C(=O)N[C@@H](Cc2ccccc2F)C(=O)Nc2cc(C(=O)O)cc(C(=O)O)c2)c1 [Example 29]
6. COc1ccc(C(=O)N[C@@H](Cc2ccccc2F)C(=O)Nc2cc(C(=O)O)cc(C(=O)O)c2)c(C(=O)NCC23CC4CC(CC(C4)C2)C3)c1 [Example 28]
7. O=C(O)c1cc(NC(=O)[C@H](Cc2ccccc2)NC(=O)c2cc([N+](=O)[O-])ccc2C(=O)NCC23CC4CC(CC(C4)C2)C3)cc(C(=O)O)c1 [Example 15]

Return:
1: 0.0631; 2: 0.316; 3: 0.1; 4: 0.00794; 5: 0.0158; 6: 0.0158; 7: 1

Enquiry: API: value(readout=Ki, system=CCKB (Mus musculus, UniProt P56481)) for record O=C(O)c1cc(NC(=O)[C@@H](Cc2ccccc2)NC(=O)c2ccccc2C(=O)NCC23CC4CC(CC(C4)C2)C3)cc(C(=O)O)c1 [Example 3]
Return: 0.398
